Tested on: Enterococcus faecium
Assay: Antibacterial activity against Enterococcus faecium 7130724 by broth microdilution method
Type: functional
Below: a set of entries, each annotated with reported MIC.

Known results for molecules:
CNC(=O)C[C@@H]1NC(=O)c2csc(n2)-c2ccc(-c3nc(N(CCCCC(=O)O)C(=O)[C@H]4CC[C@H](C(=O)O)CC4)cs3)nc2-c2csc(n2)-c2csc(n2)[C@H]([C@@H](O)c2ccccc2)NC(=O)CNC(=O)c2nc(sc2COC)[C@H](C(C)C)NC(=O)c2nc1sc2C    > 32 µg/mL
CNC(=O)C[C@@H]1NC(=O)c2csc(n2)-c2ccc(-c3nc(N(CCCCC(=O)O)C(=O)OCC(CCCCC(=O)O)CC(=O)O)cs3)nc2-c2csc(n2)-c2csc(n2)[C@H]([C@@H](O)c2ccccc2)NC(=O)CNC(=O)c2nc(sc2COC)[C@H](C(C)C)NC(=O)c2nc1sc2C (some centres undefined)    8 µg/mL
CNC(=O)C[C@@H]1NC(=O)c2csc(n2)-c2ccc(-c3nc(N(CCCCC(CCC(=O)O)C(=O)O)C(=O)O[C@H]4CC[C@H](C(=O)O)CC4)cs3)nc2-c2csc(n2)-c2csc(n2)[C@H]([C@@H](O)c2ccccc2)NC(=O)CNC(=O)c2nc(sc2COC)[C@H](C(C)C)NC(=O)c2nc1sc2C (some centres undefined)    8 µg/mL

Next up:
-- ask Any idea what its MIC is? The molecule is `CNC(=O)C[C@@H]1NC(=O)c2csc(n2)-c2ccc(-c3nc(N(C/C=C/C(=O)O)C(=O)O[C@H]4CC[C@H](C(=O)O)CC4)cs3)nc2-c2csc(n2)-c2csc(n2)[C@H]([C@@H](O)c2ccccc2)NC(=O)CNC(=O)c2nc(sc2COC)[C@H](C(C)C)NC(=O)c2nc1sc2C`
-- reply 0.5 µg/mL
